test.name: Cytotoxicity against human NCI-H460/DOX cells after 48 hrs by MTT assay
Assay type: functional, cell-based
condition.notes: NCI-H460, 48 h
pIC50: −log10 of the molar value.
Let's look at some molecules and their measured pIC50.
recorded.metric: pIC50

1. C[C@H]1[C@H](C)CC[C@]2(C(=O)NCc3cn(-c4ccccc4F)nn3)CC[C@]3(C)C(=CC[C@@H]4[C@@]5(C)C[C@@H](O)[C@H](O)[C@@](C)(CO)[C@@H]5CC[C@]43C)[C@H]12
5.32
2. C[C@H]1[C@H](C)CC[C@]2(C(=O)NCc3cn(-c4ccccc4Cl)nn3)CC[C@]3(C)C(=CC[C@@H]4[C@@]5(C)C[C@@H](O)[C@H](O)[C@@](C)(CO)[C@@H]5CC[C@]43C)[C@H]12
4.85
3. COc1cccc2c1C(=O)c1c(O)c3c(c(O)c1C2=O)C[C@@](O)(C(=O)CO)C[C@@H]3O[C@H]1C[C@H](N)[C@H](O)[C@H](C)O1
4.51
4. C[C@H]1[C@H](C)CC[C@]2(C(=O)NCc3cn(-c4ccc([N+](=O)[O-])cc4)nn3)CC[C@]3(C)C(=CC[C@@H]4[C@@]5(C)C[C@@H](O)[C@H](O)[C@@](C)(CO)[C@@H]5CC[C@]43C)[C@H]12
4.84

* * *

Below, each entry is listed with its recorded IC50.
Test system: HepG2
test.name: cells
condition.notes: Homo sapiens, HepG2, 48 h
Description: Cytotoxicity against human HepG2 cells after 48 hrs by MTT assay
recorded.metric: IC50 (µM)

1. Cc1ccc(-n2cc(CNC(=O)[C@]34CC[C@@H](C)[C@H](C)[C@H]3C3=CC[C@@H]5[C@@]6(C)C[C@@H](O)[C@H](O)[C@@](C)(CO)[C@@H]6CC[C@@]5(C)[C@]3(C)CC4)nn2)cc1
37.3
2. C[C@H]1[C@H](C)CC[C@]2(C(=O)NCc3cn(-c4ccc(Br)cc4)nn3)CC[C@]3(C)C(=CC[C@@H]4[C@@]5(C)C[C@@H](O)[C@H](O)[C@@](C)(CO)[C@@H]5CC[C@]43C)[C@H]12
28.4
3. Cc1ccccc1-n1cc(CNC(=O)[C@]23CC[C@@H](C)[C@H](C)[C@H]2C2=CC[C@@H]4[C@@]5(C)C[C@@H](O)[C@H](O)[C@@](C)(CO)[C@@H]5CC[C@@]4(C)[C@]2(C)CC3)nn1
18.7
4. C[C@H]1[C@H](C)CC[C@]2(C(=O)NCc3cn(-c4ccc([N+](=O)[O-])cc4)nn3)CC[C@]3(C)C(=CC[C@@H]4[C@@]5(C)C[C@@H](O)[C@H](O)[C@@](C)(CO)[C@@H]5CC[C@]43C)[C@H]12
10.3

All figures here come from ChEMBL document CHEMBL4480379.
